- ASSAY SYSTEM: LRRK2 (Homo sapiens, UniProt Q5S007)
- Sequence (Q5S007 970-2527 limits assumed): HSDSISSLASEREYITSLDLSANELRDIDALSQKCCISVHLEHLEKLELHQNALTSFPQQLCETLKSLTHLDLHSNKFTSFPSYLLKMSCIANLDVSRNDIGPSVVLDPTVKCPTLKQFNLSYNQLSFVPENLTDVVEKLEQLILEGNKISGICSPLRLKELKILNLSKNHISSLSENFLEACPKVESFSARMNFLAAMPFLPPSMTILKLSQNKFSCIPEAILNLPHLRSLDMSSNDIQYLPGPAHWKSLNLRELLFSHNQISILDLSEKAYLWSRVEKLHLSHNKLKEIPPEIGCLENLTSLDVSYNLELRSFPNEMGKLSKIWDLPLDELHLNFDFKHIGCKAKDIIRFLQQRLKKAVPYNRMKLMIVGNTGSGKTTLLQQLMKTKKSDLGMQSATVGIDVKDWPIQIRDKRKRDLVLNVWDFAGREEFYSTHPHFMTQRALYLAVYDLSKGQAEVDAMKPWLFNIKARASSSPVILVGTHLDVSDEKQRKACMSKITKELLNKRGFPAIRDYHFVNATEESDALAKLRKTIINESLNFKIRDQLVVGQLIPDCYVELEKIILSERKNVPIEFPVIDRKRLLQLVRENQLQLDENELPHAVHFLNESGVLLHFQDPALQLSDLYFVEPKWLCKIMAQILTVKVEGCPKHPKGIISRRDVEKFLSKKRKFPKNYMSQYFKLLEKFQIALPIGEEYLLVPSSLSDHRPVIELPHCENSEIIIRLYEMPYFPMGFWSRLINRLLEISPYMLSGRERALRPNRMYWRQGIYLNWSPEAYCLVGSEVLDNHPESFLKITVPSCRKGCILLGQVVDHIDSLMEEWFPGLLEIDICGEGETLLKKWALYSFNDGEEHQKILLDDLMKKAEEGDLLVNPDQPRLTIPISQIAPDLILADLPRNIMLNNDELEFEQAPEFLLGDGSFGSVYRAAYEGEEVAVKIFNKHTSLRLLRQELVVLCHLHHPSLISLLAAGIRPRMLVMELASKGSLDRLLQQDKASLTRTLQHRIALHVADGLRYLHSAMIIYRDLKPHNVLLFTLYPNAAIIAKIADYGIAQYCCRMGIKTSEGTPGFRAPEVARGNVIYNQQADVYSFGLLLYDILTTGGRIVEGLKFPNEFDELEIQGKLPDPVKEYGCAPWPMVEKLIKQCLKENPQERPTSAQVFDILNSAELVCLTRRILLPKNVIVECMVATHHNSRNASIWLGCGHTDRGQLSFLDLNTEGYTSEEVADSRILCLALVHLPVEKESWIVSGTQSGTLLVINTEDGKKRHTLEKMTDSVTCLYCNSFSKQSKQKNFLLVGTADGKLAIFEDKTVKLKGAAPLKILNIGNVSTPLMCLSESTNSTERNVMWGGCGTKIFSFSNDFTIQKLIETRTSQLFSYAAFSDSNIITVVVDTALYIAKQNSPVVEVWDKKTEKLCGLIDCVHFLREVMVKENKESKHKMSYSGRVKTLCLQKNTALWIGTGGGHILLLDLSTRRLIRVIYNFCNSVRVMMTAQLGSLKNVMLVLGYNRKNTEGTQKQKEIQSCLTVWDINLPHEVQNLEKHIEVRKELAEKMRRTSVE
- PROCEDURE SUMMARY: LRRK2 assay (LanthaScreen Eu Kinase Binding Assay)
- CONDITION CONTEXT: 5 nM LRRK2, 10 nM tracer 236, RT 1 h; read-out: LRRK2 Activites: IC50
REPORTED ENDPOINT: IC50

COc1cccc2nc(Nc3ccc(N4CCN(C)CC4)cc3)c3n[nH]cc3c12 [Example #201]; 100 to 1000 nM
COc1ccc2nc(Nc3ccc(OC4CCN(C)CC4)cc3)c3n[nH]cc3c2c1 [Example #163]; 100 to 1000 nM
COc1ccc2nc(Nc3ccc(C(=O)N(C)C)cc3)c3n[nH]cc3c2c1 [Example #303]; 10 to 100 nM

Consider the additional compound presented here.
Incoming: GET /values?readout=IC50&item= COc1ccc2nc(Nc3ccc(N4CCN(C)CC4)c(C)c3)c3n[nH]cc3c2c1 [Example #183]
Outgoing: 10 to 100 nM

* * *

In what follows, each item is paired with its pKi for SYK kinase (Homo sapiens, UniProt P43405).
pKi: −log10 of the molar value.

Incoming: Form: Entry = COc1cccc2nc(Nc3cc(C4CC4)[nH]n3)c3n[nH]cc3c12 [Example #199] | System = SYK kinase (Homo sapiens, UniProt P43405) | pKi = ____
Outgoing: 7.00 to 8.00

Incoming: # value lookup — system SYK kinase (Homo sapiens, UniProt P43405), readout pKi, item COc1ccc2nc(Nc3ccc4cnn(C)c4c3)c3n[nH]cc3c2c1 [Example #40]
Outgoing: > 8.00

* * *

Property: Ki; scope: individual compounds
- ASSAY SYSTEM: SYK kinase (Homo sapiens, UniProt P43405)

Worked examples, 6 compounds total:
COc1ccc2nc(Nc3ccc4c(c3)nc3n4CCN(C)C3)c3n[nH]cc3c2c1 [Example #160]; 10 to 100 nM
COc1ccc2nc(Nc3ccc4c(c3)NC(=O)CN4)c3n[nH]cc3c2c1 [Example #182]; 10 to 100 nM
COc1ccc2nc(Nc3cn[nH]c3)c3[nH]ncc3c2c1 [Example #121]; 10 to 100 nM
COc1cccc2c1nc(Nc1ccc(N3CCOCC3)cc1)c1[nH]ncc12 [Example #170]; 10 to 100 nM
COc1ccc2nc(Nc3cc(F)c(F)c(F)c3)c3n[nH]cc3c2c1 [Example #317]; 10 to 100 nM
c1cncc(Nc2nc3ccccc3c3cn[nH]c23)c1 [Example #23]; 100 to 1000 nM

Incoming: Could you share which Ki value was measured for COc1ccc2nc(Nc3cccc(S(N)(=O)=O)c3)c3n[nH]cc3c2c1 [Example #131] ?
Outgoing: 100 to 1000 nM

Incoming: // returns reported Ki for input COc1ccc2c(c1)nc(Nc1ccc3cn[nH]c3c1)c1n[nH]cc12 [Example #172]
Outgoing: 10 to 100 nM

Incoming: Ki for COc1ccc2nc(Nc3ccc(CC(N)=O)cc3)c3[nH]ncc3c2c1 [Example #112] ?
Outgoing: 10 to 100 nM

Incoming: Quick one: Ki of COc1ccc2nc(Nc3cccc(O)c3)c3[nH]ncc3c2c1 [Example #113] ?
Outgoing: 10 to 100 nM

Incoming: Suppose we examine the compound COc1ccc2nc(Nc3nnc(C4CC4)[nH]3)c3n[nH]cc3c2c1 [Example #141] ; what Ki value has been reported?
Outgoing: 100 to 1000 nM

Incoming: What value of Ki has been recorded for this entry: COc1ccc2nc(Nc3ccc4oc(=O)[nH]c4c3)c3[nH]ncc3c2c1 [Example #108]
Outgoing: 100 to 1000 nM

Incoming: Consider the compound shown here: COc1ccc2nc(Nc3ccc(OC)c(O)c3)c3n[nH]cc3c2c1 [Example #118] What is its recorded Ki?
Outgoing: < 10 nM

* * *

Measured IC50 values are reported for all entries that follow.
- ASSAY SYSTEM: LRRK2 (Homo sapiens, UniProt Q5S007)
- PROCEDURE SUMMARY: LRRK2 assay (LanthaScreen Eu Kinase Binding Assay)
- CONDITION CONTEXT: 5 nM LRRK2, 10 nM tracer 236, RT 1 h; read-out: LRRK2 Activites: IC50

Solved cases (2 shown):
COc1ccc(Nc2nc3cc(OC)c(OC)cc3c3c[nH]nc23)cc1O; 100 to 1000 nM
Fc1cc(Nc2nc3cccc(F)c3c3cn[nH]c23)ccc1N1CCOCC1; 100 to 1000 nM

Incoming: Which IC50 is reported for this molecule? "COc1ccc2nc(Nc3ccc(N4CCOCC4)c(OC)c3)c3n[nH]cc3c2c1"
Outgoing: 100 to 1000 nM

Incoming: Which measured IC50 value corresponds to "COc1ccc2nc(Nc3ccc(N(C)C)cc3)c3n[nH]cc3c2c1" ?
Outgoing: 10 to 100 nM

Incoming: Tell me the measured IC50 of "COc1ccc(Nc2nc3ccccc3c3c(C)[nH]nc23)cc1OC" , please.
Outgoing: 100 to 1000 nM

Incoming: Given "COc1ccc2nc(Nc3ccc(F)cc3)c3n[nH]cc3c2c1" , state its recorded IC50.
Outgoing: 100 to 1000 nM

* * *

- ASSAY SYSTEM: LRRK2 (Homo sapiens)
- PROCEDURE SUMMARY: LRRK2 assay (LanthaScreen Eu Kinase Binding Assay)
- CONDITION CONTEXT: 5 nM LRRK2, 10 nM tracer 236, RT 1 h; read-out: LRRK2 Activites: IC50
- From the text: Binding of the tracer to the kinase is detected using a europium-labeled anti-tag antibody, which binds to the kinase of interest. […] Binding of an inhibitor to the kinase competes for binding with the tracer, resulting in a loss of FRET. The fluorescence intensity ratio is directly proportional to the amount of peptide phosphorylation. […]
pIC50: −log10 of the molar value.
Measured pIC50 by item

COc1ccc2nc(Nc3ccc4c[nH]nc4c3)c3n[nH]cc3c2c1 [Example #15]; 6.00 to 7.00
COc1ccc2nc(Nc3ccc(OC)c(OC)c3)c3n[nH]cc3c2c1; 6.00 to 7.00
COc1ccc2nc(Nc3ccc(C(C)=O)cc3)c3n[nH]cc3c2c1; 6.00 to 7.00
COc1ccc2nc(Nc3cccc(S(=O)(=O)NC4CC4)c3)c3n[nH]cc3c2c1; 7.00 to 8.00

Now for the compound whose pIC50 we want.
Incoming: Data request, read-out pIC50, for "COc1ccc2nc(Nc3ccc4c(c3)NC(=O)CO4)c3[nH]ncc3c2c1"
Outgoing: 7.00 to 8.00

* * *

- ASSAY SYSTEM: SYK kinase (Homo sapiens, UniProt P43405)
pKi: −log10 of the molar value.
As shown below, each of these molecules has a reported pKi value.

Solved cases below.
CCN1CCN(c2ccc(Nc3nc4c(OC)cccc4c4c[nH]nc34)cc2)CC1; 7.00 to 8.00
COc1cc(OC)c2nc(Nc3ccc(NC(=O)Nc4cccc(C)c4)cc3)c3n[nH]cc3c2c1; 6.00 to 7.00
COc1cc(OC)c2nc(Nc3ccc(CN(C)C)cc3)c3n[nH]cc3c2c1; 7.00 to 8.00

Incoming: pKi of "COc1ccc(Nc2nc3cc(C#N)ccc3c3c(C)[nH]nc23)cc1OC" on SYK kinase (Homo sapiens, UniProt P43405)?
Outgoing: > 8.00

* * *

- ASSAY SYSTEM: LRRK2 (Homo sapiens, UniProt Q5S007)
- PROCEDURE SUMMARY: LRRK2 assay (LanthaScreen Eu Kinase Binding Assay)
- CONDITION CONTEXT: 5 nM LRRK2, 10 nM tracer 236, RT 1 h; read-out: LRRK2 Activites: IC50
pIC50: −log10 of the molar value.
REPORTED ENDPOINT: pIC50

Solved cases (5 shown):
COc1ccc2nc(Nc3cnc4c(c3)CN(C)CC4)c3n[nH]cc3c2c1; 6.00 to 7.00
COc1ccc2nc(Nc3cccc([S+](C)[O-])c3)c3n[nH]cc3c2c1 (centres unmarked); 6.00 to 7.00
Ic1ccc2nc(Nc3ccc(N4CCOCC4)cc3)c3[nH]ncc3c2c1; 6.00 to 7.00
COc1ccc2nc(Nc3ccc4c(c3)N=C(NCCCO)CO4)c3n[nH]cc3c2c1; 7.00 to 8.00
COc1ccc2nc(Nc3ccc4c(c3)N=C(NCCc3ccccc3)CO4)c3n[nH]cc3c2c1; 7.00 to 8.00

Incoming: Requested field: pIC50. Item: "Brc1ccc2nc(Nc3ccc4[nH]ncc4c3)c3n[nH]cc3c2c1"
Outgoing: 6.00 to 7.00

Incoming: So what does the record say about pIC50 for "COc1ccc2nc(Nc3ccc(N4CCN(C(C)(C)C)CC4)cc3)c3n[nH]cc3c2c1" ?
Outgoing: 6.00 to 7.00

Incoming: Recorded pIC50 for "COc1ccc2nc(Nc3ccc(C(=O)N4CCC4)cc3)c3n[nH]cc3c2c1" , please?
Outgoing: > 8.00
